All figures here come from patent US9932404B2.

Consider the following binders; for each one, report its % inhibition of poly(I:C)-induced NF-κB luciferase reporter.
Biological target: full length human TLR3 (human)
Assay: cell-based or functional assay

For this binder ( mAb 5 (antibody, V domains shown) VH: QVELQQSGPGLVKPSQTLSLTCAISGDSVSTRSAAWGWIRQSPGRGLEWLGRIYMRSKWYNDYAVSVKSRITINPDTSKNQFSLQLNSVTPEDTAVYYCARHTYPYLSFDVWGQGTLVTVSS VL: DIELTQPPSVSVAPGQTARISCSGDALGGYFVSWYQQKPGQAPVLVIYDDDNRPSGIPERFSGSNSGNTATLTISGTQAEDEADYYCQSYDEDSATVFGGGTKLTVL ), measured % inhibition of poly(I:C)-induced NF-κB luciferase reporter is > 50%

For this binder ( mAb 8 (antibody, V domains shown) VH: QVELQQSGPGLVKPSQTLSLTCAISGDSVSSNSAAWGWIRQSPGRGLEWLGIIQTRSKWYNDYAVSVKSRITINPDTSKNQFSLQLNSVTPEDTAVYYCARYSYPFYSIDYWGQGTLVTVSS VL: DIELTQPPSVSVAPGQTARISCSGDNIGSYYVHWYQQKPGQAPVLVIYEDSERPSGIPERFSGSNSGNTATLTISGTQAEDEADYYCQSYDSQFSFGVFGGGTKLTVL ), measured % inhibition of poly(I:C)-induced NF-κB luciferase reporter is > 50%

For this binder ( mAb 11 (antibody, V domains shown) VH: QVELQQSGPGLVKPSQTLSLTCAISGDSVSSNSAAWGWIRQSPGRGLEWLGIIQKRSKWYNNYAVSVKSRITINPDTSKNQFSLQLNSVTPEDTAVYYCARYSYPFYSIDYWGQGTLVTVSS VL: DIELTQPPSVSVAPGQTARISCSGDNIGSYYVHWYQQKPGQAPVLVIYEDSERPSGIPERFSGSNSGNTATLTISGTQAEDEADYYCSSYDEPNFNVFGGGTKLTVL ), measured % inhibition of poly(I:C)-induced NF-κB luciferase reporter is > 50%

For this binder ( mAb 17 (antibody, V domains shown) VH: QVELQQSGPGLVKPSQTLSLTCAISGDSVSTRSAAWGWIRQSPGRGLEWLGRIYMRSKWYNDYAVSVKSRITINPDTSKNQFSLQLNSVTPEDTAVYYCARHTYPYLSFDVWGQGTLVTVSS VL: DIELTQPPSVSVAPGQTARISCSGDALGGYFVSWYQQKPGQAPVLVIYDDDNRPSGIPERFSGSNSGNTATLTISGTQAEDEADYYCASYDGDEFTVFGGGTKLTVL ), measured % inhibition of poly(I:C)-induced NF-κB luciferase reporter is > 50%

For this binder ( mAb 13 (antibody, V domains shown) VH: QVELVQSGAEVKKPGESLKISCKGSGYSFTNYWVGWVRQMPGKGLEWMGFIDPSDSYTNYAPSFQGQVTISADKSISTAYLQWSSLKASDTAMYYCARELYQGYMDTFDSWGQGTLVTVSS VL: DIQMTQSPSSLSASVGDRVTITCRASQSIGLYLAWYQQKPGKAPKLLIYAASSLQSGVPSRFSGSGSGTDFTLTISSLQPEDFATYYCQQGESILSTFGQGTKVEIK ), measured % inhibition of poly(I:C)-induced NF-κB luciferase reporter is > 50%
